- MEASUREMENT_TARGET: RPS6KA4 KD2 (human) (UniProt O75676)
- Sequence (O75676 whole entry, looked up): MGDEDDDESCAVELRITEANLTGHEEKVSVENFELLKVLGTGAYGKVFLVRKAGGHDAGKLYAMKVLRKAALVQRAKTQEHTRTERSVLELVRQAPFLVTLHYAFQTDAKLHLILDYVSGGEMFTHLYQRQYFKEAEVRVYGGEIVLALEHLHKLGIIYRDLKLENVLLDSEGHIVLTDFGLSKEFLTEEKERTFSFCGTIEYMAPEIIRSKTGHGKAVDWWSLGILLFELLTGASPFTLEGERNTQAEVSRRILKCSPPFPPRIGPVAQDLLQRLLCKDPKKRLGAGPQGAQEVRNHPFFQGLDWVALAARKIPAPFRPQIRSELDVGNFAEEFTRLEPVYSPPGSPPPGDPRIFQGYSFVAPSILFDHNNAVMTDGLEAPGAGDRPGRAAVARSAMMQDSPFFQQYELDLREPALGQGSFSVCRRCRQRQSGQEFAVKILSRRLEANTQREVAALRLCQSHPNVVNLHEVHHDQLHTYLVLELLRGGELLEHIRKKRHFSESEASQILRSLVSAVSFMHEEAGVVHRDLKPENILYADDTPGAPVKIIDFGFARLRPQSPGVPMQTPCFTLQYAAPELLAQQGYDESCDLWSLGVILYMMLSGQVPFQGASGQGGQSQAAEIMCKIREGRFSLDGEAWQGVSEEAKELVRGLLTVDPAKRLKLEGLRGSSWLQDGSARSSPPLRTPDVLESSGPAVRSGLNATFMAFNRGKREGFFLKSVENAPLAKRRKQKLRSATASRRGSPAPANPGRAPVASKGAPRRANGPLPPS
- PROTOCOL_TEXT: radiometric filter-binding kinase assay, Kinase HotSpot
- EXPERIMENTAL_CONTEXT: compound 0.5 µM; ATP 10 µM
QUANTITY_NAME: residual activity (%)
Reply numerically in %, unit not repeated.

**Q:** If you can, please state the reported residual activity value of N#C/C(=C\c1ccc(O)c(O)c1)C(=O)NCc1ccccc1 .
**A:** 94.2

---
**Q:** If you can, please state the reported residual activity value of Ic1cccc(CSc2nnc(-c3ccncc3)o2)c1 .
**A:** 92.1

**Q:** // next record COc1ccc2c(c1)c(C1=C(c3c[nH]c4ccccc34)C(=O)NC1=O)cn2CCCN(C)C
**A:** 78.6

**Q:** // next record CCCCc1c(-c2ccc(OC)cc2)[nH]c2nccnc12
**A:** 89.4

###

- MEASUREMENT_TARGET: PASK (human)
- PROTOCOL_TEXT: radiometric filter-binding kinase assay, Kinase HotSpot
- EXPERIMENTAL_CONTEXT: compound 0.5 µM; ATP 10 µM
QUANTITY_NAME: residual activity (%)
Reply numerically in %, unit not repeated.

**Q:** If you can, please state the reported residual activity value of O=C(c1cc2cc(O)ccc2[nH]1)c1cc2cc(O)ccc2[nH]1 .
**A:** 78.7

**Q:** // next record O=C1c2ccccc2-c2nc3nnnn3nc21
**A:** 73.4

**Q:** // next record COc1ccc2c(c1)/C(=C/c1cnc[nH]1)C(O)=N2
**A:** 93.4

**Q:** // next record O=C1NC(=O)c2c1c1c3ccccc3[nH]c1n1cncc21
**A:** 33.6

**Q:** // next record COc1ccc2c(c1)c(C1=C(c3c[nH]c4ccccc34)C(=O)NC1=O)cn2CCCN(C)C
**A:** 83.8

---
**Q:** If you can, please state the reported residual activity value of c1ccc2c(-c3ccncc3)c[nH]c2c1 .
**A:** 101

**Q:** // next record Cn1c2ccccc2c2c3c(c4c5ccccc5n(CCC#N)c4c21)CNC3=O
**A:** 84.3

**Q:** // next record O=C1C(Cl)=C(N2C(=O)CCC2=O)C(=O)c2ccccc21
**A:** 103

###

Examples of compounds with documented residual activity follow.
- MEASUREMENT_TARGET: BRAF (human)
- PROTOCOL_TEXT: radiometric filter-binding kinase assay, Kinase HotSpot
- EXPERIMENTAL_CONTEXT: compound 0.5 µM; ATP 10 µM
Reply numerically in %, unit not repeated.

Below, each entry is followed by its recorded residual activity result.
**Q:** If you can, please state the reported residual activity value of COc1cc(Nc2c(C#N)cnc3cc(OCCCN4CCN(C)CC4)c(OC)cc23)c(Cl)cc1Cl .
**A:** 91.7

**Q:** // next record COc1ccc2c(c1)/C(=C/c1cnc[nH]1)C(O)=N2
**A:** 98.4

**Q:** // next record C[C@@H]1CCN(C(=O)CC#N)C[C@@H]1N(C)c1ncnc2[nH]ccc12
**A:** 93.7

**Q:** // next record COc1cc2ncnc(Nc3ccc(Oc4ccccc4)cc3)c2cc1OC
**A:** 79.6

**Q:** // next record N#Cc1c[nH]c2c[nH]/c(=N\Cc3cccnc3)cc2/c1=N\c1ccc(F)c(Cl)c1
**A:** 106

**Q:** // next record CN(C)S(=O)(=O)c1ccc2c(c1)/C(=C/c1cc3c([nH]1)CCCC3)C(=O)N2
**A:** 89.2

**Q:** // next record O=C(c1cc2cc(O)ccc2[nH]1)c1cc2cc(O)ccc2[nH]1
**A:** 97.4

**Q:** // next record O=C1C(Cl)=C(N2C(=O)CCC2=O)C(=O)c2ccccc21
**A:** 96.3

---
**Q:** If you can, please state the reported residual activity value of CN(C)c1ccc(/C=C2\C(=O)Nc3ccccc32)cc1 .
**A:** 101

**Q:** // next record c1ccc2c(-c3ccncc3)c[nH]c2c1
**A:** 94

**Q:** // next record Cn1c2ccccc2c2c3c(c4c5ccccc5n(CCC#N)c4c21)CNC3=O
**A:** 110

###

- MEASUREMENT_TARGET: NEK11 (human) (UniProt Q8NG66)
- Sequence (Q8NG66 whole entry, looked up): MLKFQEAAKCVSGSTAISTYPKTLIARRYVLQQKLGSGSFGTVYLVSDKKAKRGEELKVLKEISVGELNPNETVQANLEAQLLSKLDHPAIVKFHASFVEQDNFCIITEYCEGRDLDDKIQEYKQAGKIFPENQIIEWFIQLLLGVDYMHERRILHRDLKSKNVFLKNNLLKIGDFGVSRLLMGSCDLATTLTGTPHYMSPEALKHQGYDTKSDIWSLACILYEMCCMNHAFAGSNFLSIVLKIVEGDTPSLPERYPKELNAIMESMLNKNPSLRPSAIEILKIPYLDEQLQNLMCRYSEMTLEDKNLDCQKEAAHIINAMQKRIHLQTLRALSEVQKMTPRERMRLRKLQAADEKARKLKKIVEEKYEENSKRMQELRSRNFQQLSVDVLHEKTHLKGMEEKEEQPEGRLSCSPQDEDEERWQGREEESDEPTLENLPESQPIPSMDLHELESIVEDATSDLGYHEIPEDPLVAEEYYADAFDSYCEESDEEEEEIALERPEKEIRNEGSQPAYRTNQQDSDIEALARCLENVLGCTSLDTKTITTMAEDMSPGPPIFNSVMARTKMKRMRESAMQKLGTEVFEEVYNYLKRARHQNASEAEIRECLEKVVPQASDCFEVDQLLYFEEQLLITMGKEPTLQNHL
- PROTOCOL_TEXT: radiometric filter-binding kinase assay, Kinase HotSpot
- EXPERIMENTAL_CONTEXT: compound 0.5 µM; ATP 10 µM
QUANTITY_NAME: residual activity
Please state the number and follow it with the unit.

**Q:** Give residual activity (NEK11 (human) (UniProt Q8NG66)) of the following compound: Cc1cccc(-c2nc(C(C)(C)C)[nH]c2-c2ccc3c(c2)OCO3)n1
**A:** 90.3%

**Q:** // next record Cn1c2ccccc2c2c3c(c4c5ccccc5n(CCC#N)c4c21)CNC3=O
**A:** 110%

**Q:** // next record CC(C)(C)c1cc(C=C(C#N)C#N)cc(Br)c1O
**A:** 87%

**Q:** // next record COc1ccc(S(=O)(=O)N(CCO)c2ccccc2CN(C)C/C=C/c2ccc(Cl)cc2)cc1
**A:** 105%

**Q:** // next record CN(C)CCCn1cc(C2=C(c3c[nH]c4ccccc34)C(=O)NC2=O)c2ccccc21
**A:** 104%

---
**Q:** Give residual activity (NEK11 (human) (UniProt Q8NG66)) of the following compound: Ic1cccc(CSc2nnc(-c3ccncc3)o2)c1
**A:** 113%

**Q:** // next record O=C(c1cc2cc(O)ccc2[nH]1)c1cc2cc(O)ccc2[nH]1
**A:** 96.7%

###

- MEASUREMENT_TARGET: MKNK2 (human) (UniProt Q9HBH9)
- Sequence (Q9HBH9 whole entry, looked up): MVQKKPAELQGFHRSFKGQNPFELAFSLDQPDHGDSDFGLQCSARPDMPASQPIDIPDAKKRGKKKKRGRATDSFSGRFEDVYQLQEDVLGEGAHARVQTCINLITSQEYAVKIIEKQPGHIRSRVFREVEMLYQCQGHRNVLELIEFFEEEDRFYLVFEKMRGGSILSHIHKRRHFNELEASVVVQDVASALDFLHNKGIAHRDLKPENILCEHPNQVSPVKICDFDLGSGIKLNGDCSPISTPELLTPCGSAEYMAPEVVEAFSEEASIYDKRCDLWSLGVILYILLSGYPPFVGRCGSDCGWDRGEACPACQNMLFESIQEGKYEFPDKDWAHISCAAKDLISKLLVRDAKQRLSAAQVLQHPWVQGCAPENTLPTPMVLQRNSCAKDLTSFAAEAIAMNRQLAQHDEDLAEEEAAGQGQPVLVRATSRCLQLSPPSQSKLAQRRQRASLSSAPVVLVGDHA
- PROTOCOL_TEXT: radiometric filter-binding kinase assay, Kinase HotSpot
- EXPERIMENTAL_CONTEXT: compound 0.5 µM; ATP 10 µM
Examples of molecules with documented residual activity follow.
Reply numerically in %, unit not repeated.

Below, each entry is followed by its recorded residual activity result.
**Q:** If you can, please state the reported residual activity value of COc1ccc2c(c1)c(C1=C(c3c[nH]c4ccccc34)C(=O)NC1=O)cn2CCCN(C)C .
**A:** 81.1

**Q:** // next record Cc1cncc2cccc(S(=O)(=O)N3CCCN(C(=O)CN)C[C@H]3C)c12
**A:** 83.8

**Q:** // next record CC(C)(C)c1cc(C=C(C#N)C#N)cc(Br)c1O
**A:** 100

**Q:** // next record Ic1cccc(CSc2nnc(-c3ccncc3)o2)c1
**A:** 91.5

**Q:** // next record CN(C)S(=O)(=O)c1ccc2c(c1)/C(=C/c1cc3c([nH]1)CCCC3)C(=O)N2
**A:** 84.1

**Q:** // next record COc1cc(Nc2c(C#N)cnc3cc(OCCCN4CCN(C)CC4)c(OC)cc23)c(Cl)cc1Cl
**A:** 98.7

**Q:** // next record COc1ccc(C(=O)Nc2sc3c(c2C(N)=O)CCCC3)cc1OC
**A:** 78.7

**Q:** // next record O=C1c2ccccc2-c2nc3nnnn3nc21
**A:** 78.3

**Q:** // next record COc1ccc(Cl)cc1NC(=O)Nc1cc(C)nc2ccccc12
**A:** 90.3

**Q:** // next record COc1cc2ncnc(Nc3ccc(OCc4ccccc4)cc3)c2cc1OC
**A:** 88.1

---
**Q:** If you can, please state the reported residual activity value of Cn1c2ccccc2c2c3c(c4c5ccccc5n(CCC#N)c4c21)CNC3=O .
**A:** 18

###

- MEASUREMENT_TARGET: CSNK1D (human)
- PROTOCOL_TEXT: radiometric filter-binding kinase assay, Kinase HotSpot
- EXPERIMENTAL_CONTEXT: compound 0.5 µM; ATP 10 µM
Examples of compounds with documented residual activity follow.
Reply numerically in %, unit not repeated.

Below, each entry is followed by its recorded residual activity result.
**Q:** If you can, please state the reported residual activity value of N#C/C(=C\c1ccc(O)c(O)c1)C(=O)NCc1ccccc1 .
**A:** 98.3

**Q:** // next record CN(C)S(=O)(=O)c1ccc2c(c1)/C(=C/c1cc3c([nH]1)CCCC3)C(=O)N2
**A:** 99.7

**Q:** // next record CO[C@@H]1[C@H](N(C)C(=O)c2ccccc2)C[C@H]2O[C@]1(C)n1c3ccccc3c3c4c(c5c6ccccc6n2c5c31)C(=O)NC4
**A:** 101

**Q:** // next record Cc1nc(-c2ccccc2)c(-c2ccncc2)o1
**A:** 44

**Q:** // next record O=C1C(Cl)=C(N2C(=O)CCC2=O)C(=O)c2ccccc21
**A:** 99.4

**Q:** // next record Cc1cccc(-c2nc(C(C)(C)C)[nH]c2-c2ccc3c(c2)OCO3)n1
**A:** 63.4

**Q:** // next record NC(=O)c1cccc(-c2cc(Nc3ccc(OC(F)(F)F)cc3)ncn2)c1
**A:** 99.1

**Q:** // next record COc1ccc(S(=O)(=O)N(CCO)c2ccccc2CN(C)C/C=C/c2ccc(Cl)cc2)cc1
**A:** 102

**Q:** // next record c1ccc2c(-c3ccncc3)c[nH]c2c1
**A:** 105

Field: next compound
**Q:** If you can, please state the reported residual activity value of CCCCc1c(-c2ccc(OC)cc2)[nH]c2nccnc12 .
**A:** 94.7
